In this section we review reported Percent Inhibition With 200 μmol/kg oral dose values for a set of compounds.
- System: Leukotriene Biosynthesis
- protocol-details: In Vivo Inhibition of Leukotriene Biosynthesis (rat peritoneal anaphylaxis model)
- experimental-setup: oral gavage 200 μmol/kg one hour prior to antigen challenge, peritoneal fluid leukotrienes 15 minutes after challenge, vs mean of control group
reported-endpoint: Percent Inhibition With 200 μmol/kg oral dose (%)

compound: Cc1cc(C(C)NC(=O)N(C)O)c(C)s1 (stereo not drawn)
reading: 49
--
compound: CN(O)C(=O)NCc1ccsc1
reading: 92
--
compound: O=C(NCc1ccsc1)N(O)CCO
reading: 79
--
compound: CN(O)C(=O)NCc1cccs1
reading: 67
--
compound: CC(NC(=O)N(C)O)c1ccc(OCc2ccccc2)cc1 (stereo not drawn)
reading: 86
--
compound: CC(NC(=O)N(C)O)c1cc2ccccc2o1 (stereo not drawn)
reading: 50

* * *

In this section we review reported IC50 values for a set of compounds.
- tested-system: 5-lipoxygenase (Rattus norvegicus, UniProt P12527)
- Construct: 20,000×g supernatant from homogenized RBL-1 cells; endogenous in cells
- Sequence (P12527 whole entry): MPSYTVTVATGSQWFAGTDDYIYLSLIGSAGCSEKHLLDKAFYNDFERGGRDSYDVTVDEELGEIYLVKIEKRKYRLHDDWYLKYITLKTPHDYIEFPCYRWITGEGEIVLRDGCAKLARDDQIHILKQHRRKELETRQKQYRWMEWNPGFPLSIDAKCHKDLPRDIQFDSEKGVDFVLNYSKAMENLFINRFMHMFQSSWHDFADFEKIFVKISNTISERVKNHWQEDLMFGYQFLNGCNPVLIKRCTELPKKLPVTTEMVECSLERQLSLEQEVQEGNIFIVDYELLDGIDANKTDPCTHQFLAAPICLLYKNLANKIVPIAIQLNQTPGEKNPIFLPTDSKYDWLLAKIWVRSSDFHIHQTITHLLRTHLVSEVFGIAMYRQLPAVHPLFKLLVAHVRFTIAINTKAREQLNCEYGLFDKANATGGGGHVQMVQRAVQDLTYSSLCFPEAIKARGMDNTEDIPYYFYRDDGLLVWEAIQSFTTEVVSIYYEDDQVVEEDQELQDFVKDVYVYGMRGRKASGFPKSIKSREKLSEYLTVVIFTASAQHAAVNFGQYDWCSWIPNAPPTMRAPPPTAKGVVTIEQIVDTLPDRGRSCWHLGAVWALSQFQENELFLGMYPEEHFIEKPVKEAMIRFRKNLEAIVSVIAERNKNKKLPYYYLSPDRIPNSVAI
- protocol-details: In Vitro 5-lipoxygenase Inhibitory Activity (20,000×g supernatant from homogenized RBL-1 cells)
- experimental-setup: read-out: IC50 (concentration of compound producing 50% enzyme inhibition)

compound: O=C(NO)N[C@@H]1C[C@H]1c1ccccc1 (relative stereo) [Example 11]
IC50, µM: 28
//
compound: CC(NC(=O)NO)c1ccc2ccccc2c1 (centres unmarked) [Example 4, N'-hydroxy-N-[(1-naphth-2-yl)ethyl]urea]
IC50, µM: 4.6
//
compound: CN(O)C(=O)NCc1ccsc1 [Example 8]
IC50, µM: 4
//
compound: CN(O)C(=O)NCc1cccs1 [Example 6]
IC50, µM: 3.6
//
compound: CCCCOc1ccc(C(C)NC(=O)NO)cc1 (centres unmarked) [Example 3]
IC50, µM: 3.8
